// provenance: ChEMBL document CHEMBL1135071

Target protein (sequence): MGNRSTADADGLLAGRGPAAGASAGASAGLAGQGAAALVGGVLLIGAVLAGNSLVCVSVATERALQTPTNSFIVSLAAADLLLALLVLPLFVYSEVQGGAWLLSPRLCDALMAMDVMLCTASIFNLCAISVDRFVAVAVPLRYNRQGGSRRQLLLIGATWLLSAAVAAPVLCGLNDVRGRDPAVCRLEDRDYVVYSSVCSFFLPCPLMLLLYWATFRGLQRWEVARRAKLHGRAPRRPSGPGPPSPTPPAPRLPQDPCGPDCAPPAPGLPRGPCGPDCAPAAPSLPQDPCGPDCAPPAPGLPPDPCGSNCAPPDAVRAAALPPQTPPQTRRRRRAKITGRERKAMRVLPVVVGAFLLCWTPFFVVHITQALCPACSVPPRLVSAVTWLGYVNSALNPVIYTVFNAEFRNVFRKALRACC
pKi: −log10 of the molar value.
Binary classification by pKi, with 8 as an inclusive lower bound for 1 (yes); all other cases are 0 (no).

INSERT INTO results (smiles_string, label_class) VALUES
  ('N#Cc1cccc2c(CN3CCN(c4ccc(Cl)cc4)CC3)cnn12', '1 (yes)'),
  ('Cc1nn2c(N3CCN(Cc4ccccc4)CC3)cccc2c1CN1CCN(c2ccc(Cl)cc2)CC1', '0 (no)'),
  ('Cc1nn2c(-c3ccc(F)cc3)cccc2c1CN1CCN(c2ccc(Cl)cc2)CC1', '0 (no)'),
  ('Cc1nn2c(C#N)cccc2c1CN1CCN(c2ccc(Cl)cc2)CC1', '1 (yes)');

* * *

# test_target: D(2) dopamine receptor (Homo sapiens, UniProt P14416)
# Sequence (P14416 whole entry): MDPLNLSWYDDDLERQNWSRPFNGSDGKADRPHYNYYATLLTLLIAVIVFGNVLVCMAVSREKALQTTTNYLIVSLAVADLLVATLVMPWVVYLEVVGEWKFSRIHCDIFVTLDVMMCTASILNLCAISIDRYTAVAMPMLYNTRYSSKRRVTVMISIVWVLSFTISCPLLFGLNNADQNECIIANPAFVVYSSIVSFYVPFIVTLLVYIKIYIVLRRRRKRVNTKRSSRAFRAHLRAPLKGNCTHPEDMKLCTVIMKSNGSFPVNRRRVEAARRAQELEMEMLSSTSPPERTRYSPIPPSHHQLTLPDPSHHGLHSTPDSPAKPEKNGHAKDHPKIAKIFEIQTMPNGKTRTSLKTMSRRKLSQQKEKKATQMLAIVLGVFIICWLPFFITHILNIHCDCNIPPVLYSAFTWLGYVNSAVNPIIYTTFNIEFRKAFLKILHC
# assay_details: In vitro binding affinity at human cloned dopamine receptor D2 (long) stably expressed in CHO cells by [3H]-Spiperone displacement.
# Assay type: cell-based
pKi: −log10 of the molar value.
Binary classification by pKi, with 5 as an inclusive lower bound for yes; all other cases are no.

INSERT INTO measurements (smiles_string, label_class) VALUES
  ('Cc1cccc2c(CN3CCN(c4ccc(Cl)cc4)CC3)cnn12', 'yes'),
  ('Clc1ccc(N2CCN(Cc3cnn4c(N5CCN(Cc6ccccc6)CC5)cccc34)CC2)cc1', 'yes'),
  ('Cc1nn2c(-c3ccc(F)cc3)cccc2c1CN1CCN(c2ccc(Cl)cc2)CC1', 'no'),
  ('C#Cc1cccc2c(CN3CCN(c4ccc(Cl)cc4)CC3)cnn12', 'yes'),
  ('Clc1ccc(N2CCN(Cc3cnn4c(-c5ccccc5)cccc34)CC2)cc1', 'yes'),
  ('OCc1cccn2ncc(CN3CCN(c4ccc(Cl)cc4)CC3)c12', 'no'),
  ('C#Cc1cccc2c(CN3CCN(c4ccc(Cl)cc4)CC3)c(C)nn12', 'no'),
  ('Cc1nn2c(-c3ccccc3)cccc2c1CN1CCN(c2ccc(Cl)cc2)CC1', 'no'),
  ('OCc1ccc2c(CN3CCN(c4ccc(Cl)cc4)CC3)cnn2c1', 'no'),
  ('Fc1ccc(-c2cccc3c(CN4CCN(c5ccc(Cl)cc5)CC4)cnn23)cc1', 'no'),
  ('Cc1nn2c(N3CCN(Cc4ccccc4)CC3)cccc2c1CN1CCN(c2ccc(Cl)cc2)CC1', 'yes'),
  ('C[Si](C)(C)c1cccc2c(CN3CCN(c4ccc(Cl)cc4)CC3)cnn12', 'yes');

* * *

Measured EC50 by item
# test_target: D(4) dopamine receptor (Homo sapiens, UniProt P21917)
# assay_details: Tested for the effective concentration against human D4.2 receptor in CHO 10001 cells established in mitogenesis assay
quantity_kind: EC50

INSERT INTO results (smiles_string, observed) VALUES
  ('Cc1nn2c(C#N)cccc2c1CN1CCN(c2ccc(Cl)cc2)CC1', '12 nM'),
  ('N#Cc1cccc2c(CN3CCN(c4ccc(Cl)cc4)CC3)cnn12', '1.5 nM');
